assay: Comment Code material properties: vapor pressure, ClogP, probability of ingredient color instability, odor detection threshold, melamine formaldehyde PMC headspace response ratio and leakage, liquid dish neat product liquid-air partition coefficient; assay type: physicochemical; conditions: cell strings several class symbols together; each letter is one property class of L1
parameter.measured: Comment Code

> print(dat)
                                    compound  parameter.measured  obs.value
 1  CCCCCCCC(=O)OC/C=C(\C)CCC=C(C)C [Material 308]        Comment Code      DEFHJ
 2  CCC(=O)OC(C)c1ccccc1 (stereo not shown) [Material 96]        Comment Code      BCHJK
 3           COC(=O)C=C1CCCC1 [Material 116]        Comment Code   ACEFHIKL
 4  COC(=O)c1ccccc1/N=C\C1CCC(C)=CC1C (stereo not shown) [Material 1131]        Comment Code      DEFHJ
 5                 CCC/C=C\CO [Material 547]        Comment Code   ACEFHIKL
 6                 CC/C=C\CCO [Material 542]        Comment Code   ACEFHIKL
 7  Cc1cc2c(cc1C#N)C(C)(C)C(C)C(C)C2(C)C (stereo not shown) [Material 1142]        Comment Code        DHJ
 8  CC(C)=C1CCC2=CC(=O)CC(C)C2(C)C1 (stereo not shown) [Material 684]        Comment Code       DHJK
 9  CCOC(=O)[C@@H]1[C@@H](C)CCCC1(C)C [Material 1058]        Comment Code  ADEFHIJKL
10  COC(=O)C1(C)CCC(C)CC1 (stereo not shown) [Material 477]        Comment Code  ADEFHIJKL
11  CC(=O)OC(C)(C)C1CC=C(C)CC1 (stereo not shown) [Material 687]        Comment Code      BDHJK
12  CC1=CC[C@@H]2C3CC([C@@H]2C1)[C@@]1(C3)OC1C (stereo partly shown) [Material 1007]        Comment Code     DEFHJK
13  CC=Cc1ccc(OCc2ccccc2)c(OC)c1 [Material 212]        Comment Code       DFHJ
14  CC(=CCCC1(C)C2CC3C(C2)C31C)CO (stereo not shown) [Material 694]        Comment Code     DEFHJK

* * *

experiment: Comment Code material properties: vapor pressure, ClogP, probability of ingredient color instability, odor detection threshold, melamine formaldehyde PMC headspace response ratio and leakage, liquid dish neat product liquid-air partition coefficient; format: physicochemical; conditions: Table 1 materials; each letter of the code is one property class (vapor pressure, ClogP, color instability, odor detection threshold, PMC headspace ratio, PMC leakage, liquid dish liquid-air partition coefficient)
parameter.measured: Comment Code

> print(dat)
                                    compound  parameter.measured  obs.value
 1  CCOC(=O)CC(O)(CC(=O)OCC)C(=O)OCC [Material 1091]        Comment Code      CEFGJ
 2  CCCC(O)CCC1C(C)CCCC1(C)C (centres unmarked) [Material 1063]        Comment Code     DEFHJK
 3  CC1=CCC(CCC(C)C(C)O)C1(C)C (centres unmarked) [Material 1023]        Comment Code     DEFHJK
 4  CCC(O)COC1CCCCC1C(C)(C)C (centres unmarked) [Material 677]        Comment Code     DEFHJK
 5          CCCC/C=C/C=C/C=O [Material 1064]        Comment Code      ACHKL
 6  C=C1CC[C@@H]2[C@H]([C@H]3[C@H]1CC[C@]3(C)O)C2(C)C [Material 1035]        Comment Code     DEFHJK
 7  CC1=CC(=O)CC(C)C12CCC(=C(C)C)C2 (centres unmarked) [Material 610]        Comment Code       DHJK
 8  CC(OC(C)(C)COC(=O)C1CC1)C1CCCC(C)(C)C1 (centres unmarked) [Material 1032]        Comment Code      DEFHJ
 9  CC1=C2C(CC1)C(C)CCC1C2C1(C)C (centres unmarked) [Material 708]        Comment Code   BDEFHJKL
10  CC(C)CCc1ccc2c(c1)OCC(=O)CO2 [Material 658]        Comment Code        DHJ
11              CCC=CCCC=CC=O [Material 864]        Comment Code      ACHKL
12             C=CCCCCCCCCC=O [Material 871]        Comment Code      ADHJK
13  CCCCCCCC1CCCO1 (centres unmarked) [Material 852]        Comment Code   BDEFHJKL
14  CC1CC(C)(C)OC(Cc2ccccc2)O1 (centres unmarked) [Material 1003]        Comment Code     DEFHJK
